Here, each record is paired with measured Adult PBMCs (median ng/ml) IL-6 (N = 7) data.
Test system: human adult PBMCs
Experiment: Cytokine production by stimulated human adult PBMCs (ELISA / multiplex)
Type: cell-based
Settings: human adult PBMCs, 24 hours, compounds at 100 µM (FIG. 7), ELISA, median
# number only, unit ng/mL dropped from output

Consider the following illustrative entries.
CNC(=O)c1c(NC(=O)c2ccc(S(=O)(=O)N(C)C)cc2)sc2c1CCCC2 [Compound 80.3]	0.008
Cc1ccc(N(CC(=O)NCc2ccc(Cl)cc2)S(C)(=O)=O)cc1 [TM-E, reference compound]	0.008
COC(=O)c1c(NC(=O)Nc2ccccc2)sc2c1CCCC2 [TM-B, reference compound]	0.057
CCOC(=O)c1c(NC(=S)Nc2ccc(OC)cc2)sc2c1CCCC2 [TM-C, reference compound]	0.5145
CNC(=O)c1c(NC(=O)c2ccc(C#N)cc2)sc2c1CCC2 [Compound 80.11]	0.0225

The record that follows has no Adult PBMCs (median ng/ml) IL-6 (N = 7) shown yet.
Query CNC(=O)c1c(NC(=O)c2ccc(S(=O)(=O)N(C)C)cc2)sc2c1CCC2 [Compound 80] on human adult PBMCs; Adult PBMCs (median ng/ml) IL-6 (N = 7) returned: 1.868

---

Tested on: human adult PBMCs
Assay: Cytokine production by stimulated human adult PBMCs (ELISA / multiplex)
Assay type: cell-based
Conditions: human adult PBMCs, 24 hours, compounds at 100 µM (FIG. 7), ELISA, median
readout.name: Adult PBMCs (median ng/ml) IL-6 (N = 7) (ng/mL)
# number only, unit ng/mL dropped from output

COc1ccc(CNC(=O)CN(c2ccc(Br)cc2)S(=O)(=O)c2ccccc2)cc1 [TM-F, reference compound]	0.008
CNC(=O)c1c(NC(=O)c2ccc(OC)cc2)sc2c1CCC2 [Compound 80.8]	0.008

The molecule listed as CNC(=O)c1c(NC(=O)c2ccc(S(=O)(=O)N3CCCC3)cc2)sc2c1CCC2 [Compound 80.10] shows Adult PBMCs (median ng/ml) IL-6 (N = 7) equal to 0.012
